src = PubChem BioAssay AID540364

test: FXN promoter activators, primary screen, cell-based, luciferase luminescence, HEK293 lucGAA850 (AID 540364); conditions: HEK293 lucGAA850 FXN promoter luciferase reporter, 24 h; at 6 µM; stronger effect = higher value; percent of 10 µM SAHA response;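 further: 0% = DMSO wells and 100% = 10 µM SAHA wells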
The whole screen tested about 360,000 compounds, of which about 2,000 (0.56%) were called active. Only a selection was taken, and actives are over-represented in it overall.
Catalogue of molecules with associated activation
QUANTITY MEASURED: activation (%)

INSERT INTO results (molecule, unit_of_measurement, reported_result) VALUES
  ('Cc1cc(-c2n[nH]c(=S)n2/N=C/C(Br)=C/c2ccccc2)n[nH]1', '%', -0.09),
  ('Cc1nn(CC(=O)Nc2ccc3c(c2)nc(CN2CCCCC2)n3C)c(=O)c2ccccc12', '%', -1.92),
  ('O=C1[C@H]2[C@@H](c3ccc(Cl)cc3)N3C(=O)N(c4cccc(F)c4)C(=O)[C@@]3(Cc3ccccc3)[C@H]2C(=O)N1C1CCCCC1', '%', 8.92),
  ('O=C(NCCN1CCOCC1)c1ccccc1N1C(=O)[C@@H]2Cc3c([nH]c4ccccc34)C(c3cccc(Cl)c3)N2C1=O (stereo partly drawn)', '%', -10.6),
  ('O=C1[C@H]2[C@@H](c3ccc(F)cc3)N3C(=O)N(c4ccc(C(F)(F)F)cc4)C(=O)[C@@]3(Cc3ccccc3)[C@H]2C(=O)N1C1CCCCC1', '%', 7.65),
  ('Cc1cc(C(=O)N/N=C\C(Br)=C\c2ccccc2)c(C)o1', '%', 11.4),
  ('O=C1[C@H]2[C@@H](c3ccc(C(F)(F)F)cc3)N[C@]3(CCCN(Cc4ccc(Br)cc4)C3=O)[C@H]2C(=O)N1Cc1ccccc1', '%', -7.76),
  ('Cn1c(CCN2CCCCCC2)nc2cc(NC(=O)Nc3ccccc3)ccc21', '%', 10.5);
